Below, each of the binders is paired with its reported optical density value.
Subject of test: Mouse ACVR2A (mouse, UniProt P27038 20-135, limits assumed)
Sequence (P27038 20-135 limits assumed): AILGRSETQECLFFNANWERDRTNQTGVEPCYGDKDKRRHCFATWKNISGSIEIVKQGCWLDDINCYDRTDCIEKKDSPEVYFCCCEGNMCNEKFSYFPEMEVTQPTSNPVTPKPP
Run description: ELISA; also: test concentration or dose not given here
Respond numerically; units are OD and should not be typed.

As a guide, the following entries are already answered.
Binder	optical density (OD)
375_F10 (antibody, V domains shown, VH/VL only) VH: EVQLLESGGGLVQPGGSLRLSCAASGFTFSSYSMNWVRQAPGKGLEWVSGINYNGGYTGYADSVKGRFTISRDNSKNTLYLQMNSLRAEDTAVYYCARGATWHDTHLDYWGQGTLVTVSS VL: DIQMTQSPSSLSASVGDRVTITCRASQSILTYLNWYQQKPGKAPKLVIYAATSRASGVPSRFSGSGSGTDFTLTISSLQPEDFATYYCQQSYDTPLTFGGGTKVEIK	3.77
371_C07 (antibody, V domains shown, VH/VL only) VH: EVQLLESGGGLVQPGGSLRLSCAASGFTFDSYGMNWVRQAPGKGLEWVSNINYNGGYTGYADSVKGRFTISRDNSKNTLYLQMNSLRAEDTAVYYCARGATWHDTALDYWGQGTLVTVSS VL: DIQMTQSPSSLSASVGDRVTITCRASQSILSYLNWYQQKPGKAPKLLIYAATSLASGVPSRFSGSGSGTDFTLTISSLQPEDFATYYCQQSYDTPLTFGGGTKVEIK	1.45

Let us examine a further case.
So what does the record say about optical density for 365_G01 (antibody, V domains shown, VH/VL only) VH: EVQLLESGGGLVQPGGSLRLSCAASGFTFDSYGMNWVRQAPGKGLEWVAGINYNSGYKSYADSVKGRFTISRDNSKNTLYLQMNSLRAEDTAVYYCARSANWHDTALDYWGQGTLVTVSS VL: DIQMTQSPSSLSASVGDRVTITCRASQSILTYVNWYQQKPGKAPKLLIYATTSRASGVPSRFSGSGSGTDFTLTISSLQPEDFATYYCQQSYDSPLTFGGGTKVEIK ?
2.65
